target: UniProt P09619
Sequence (P09619 whole entry): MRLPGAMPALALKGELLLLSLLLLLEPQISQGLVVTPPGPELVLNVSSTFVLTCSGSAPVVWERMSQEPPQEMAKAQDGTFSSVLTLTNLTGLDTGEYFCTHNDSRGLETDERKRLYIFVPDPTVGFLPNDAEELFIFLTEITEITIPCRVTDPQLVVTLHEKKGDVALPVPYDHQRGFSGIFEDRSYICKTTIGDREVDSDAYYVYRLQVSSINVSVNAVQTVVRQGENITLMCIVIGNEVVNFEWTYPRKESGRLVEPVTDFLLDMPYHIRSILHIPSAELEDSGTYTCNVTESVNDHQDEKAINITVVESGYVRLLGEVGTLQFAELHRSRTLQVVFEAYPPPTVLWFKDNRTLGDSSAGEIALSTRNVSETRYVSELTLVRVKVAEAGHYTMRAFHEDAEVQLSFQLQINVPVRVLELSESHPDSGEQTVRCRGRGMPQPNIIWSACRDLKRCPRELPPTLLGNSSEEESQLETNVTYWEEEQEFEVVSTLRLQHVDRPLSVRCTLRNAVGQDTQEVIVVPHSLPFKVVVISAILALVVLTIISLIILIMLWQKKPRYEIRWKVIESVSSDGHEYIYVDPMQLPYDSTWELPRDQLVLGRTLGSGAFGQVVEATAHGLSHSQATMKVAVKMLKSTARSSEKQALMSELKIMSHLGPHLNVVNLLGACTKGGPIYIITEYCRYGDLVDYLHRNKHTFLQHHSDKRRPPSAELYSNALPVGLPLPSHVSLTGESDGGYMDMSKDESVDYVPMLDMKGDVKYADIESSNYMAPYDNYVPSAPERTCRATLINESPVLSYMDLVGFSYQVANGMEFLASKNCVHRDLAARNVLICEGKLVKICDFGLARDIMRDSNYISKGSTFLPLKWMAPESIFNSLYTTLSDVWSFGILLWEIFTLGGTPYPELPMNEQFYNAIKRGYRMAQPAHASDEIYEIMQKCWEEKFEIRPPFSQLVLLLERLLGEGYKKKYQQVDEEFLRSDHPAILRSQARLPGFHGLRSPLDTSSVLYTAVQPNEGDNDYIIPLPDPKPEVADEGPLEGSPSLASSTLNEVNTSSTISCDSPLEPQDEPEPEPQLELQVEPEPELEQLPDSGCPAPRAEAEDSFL
readout: IC50

Quick one: IC50 of CCCNC(=O)c1cc(Oc2ccc(NC(=O)c3cc4cccnc4n(-c4ccc(F)cc4)c3=O)cc2)ccn1 ?
0.482 µM

###

tested on: HT-29; assay: cells; details: Homo sapiens, HT-29, 72 h
readout: pIC50
The value called pIC50 is obtained by taking minus log10 of the concentration in mol/L.

Solved cases below.
>  <smiles.record>
CCCNC(=O)c1cc(Oc2ccc(NC(=O)c3cc4cccnc4n(-c4ccc(F)c(Cl)c4)c3=O)cc2)ccn1

>  <tested.target>
HT-29

>  <reading>
6.04

$$$$
>  <smiles.record>
CCCNC(=O)c1cc(Oc2ccc(NC(=O)c3cc4cccnc4n(-c4ccccc4)c3=O)cc2)ccn1

>  <tested.target>
HT-29

>  <reading>
7.01

$$$$
>  <smiles.record>
CCNC(=O)c1cc(Oc2ccc(NC(=O)c3cc4cccnc4n(-c4ccc(C(F)(F)F)cc4Cl)c3=O)cc2)ccn1

>  <tested.target>
HT-29

>  <reading>
5.32

$$$$

Next compound, please.
Quick one: pIC50 of CCCNC(=O)c1cc(Oc2ccc(NC(=O)c3cc4cccnc4n(-c4ccc(Br)cc4)c3=O)cc2)ccn1 ?
6.28

###

tested on: U-87 MG; assay: Antiproliferative activity against human U87MG cells after 72 hrs by MTT assay; assay type: functional, cell-based, U-87MG ATCC
readout: IC50 (µM)
Answer in µM, number only, no unit symbol.

>  <smiles.record>
CNC(=O)c1cc(Oc2ccc(NC(=O)c3cc4cccnc4n(-c4ccc(F)cc4)c3=O)cc2)ccn1

>  <tested.target>
U-87 MG

>  <display.unit>
µM

>  <reading>
2.91

$$$$

Quick one: IC50 of CCNC(=O)c1cc(Oc2ccc(NC(=O)c3cc4cccnc4n(-c4ccccc4F)c3=O)cc2)ccn1 ?
3.25

###

system: U-87 MG; experiment: Antiproliferative activity against human U87MG cells after 72 hrs by MTT assay; assay type: functional, cell-based, U-87MG ATCC
readout: IC50
Include the unit after the number when you answer.

Solved cases below.
>  <smiles.record>
CNC(=O)c1cc(Oc2ccc(NC(=O)c3cc4cccnc4n(-c4ccc(Br)cc4)c3=O)cc2)ccn1

>  <tested.target>
U-87 MG

>  <IC50>
15 µM

$$$$
>  <smiles.record>
CCNC(=O)c1cc(Oc2ccc(NC(=O)c3cc4cccnc4n(-c4ccccc4)c3=O)cc2)ccn1

>  <tested.target>
U-87 MG

>  <IC50>
2.65 µM

$$$$
>  <smiles.record>
CNC(=O)c1cc(Oc2ccc(NC(=O)c3cc4cccnc4n(-c4ccccc4)c3=O)cc2)ccn1

>  <tested.target>
U-87 MG

>  <IC50>
1.82 µM

$$$$
>  <smiles.record>
CCCNC(=O)c1cc(Oc2ccc(NC(=O)c3cc4cccnc4n(-c4ccc(OC)cc4)c3=O)cc2)ccn1

>  <tested.target>
U-87 MG

>  <IC50>
8.21 µM

$$$$
>  <smiles.record>
CCNC(=O)c1cc(Oc2ccc(NC(=O)c3cc4cccnc4n(-c4ccc(Br)cc4F)c3=O)cc2)ccn1

>  <tested.target>
U-87 MG

>  <IC50>
10.3 µM

$$$$

Quick one: IC50 of CCCNC(=O)c1cc(Oc2ccc(NC(=O)c3cc4cccnc4n(-c4ccccc4F)c3=O)cc2)ccn1 ?
2.32 µM

Quick one: IC50 of CNC(=O)c1cc(Oc2ccc(NC(=O)c3cc4cccnc4n(-c4ccc(C(F)(F)F)cc4Cl)c3=O)cc2)ccn1 ?
19.8 µM

Quick one: IC50 of CCCNC(=O)c1cc(Oc2ccc(NC(=O)c3cc4cccnc4n(-c4ccc(C(F)(F)F)cc4Cl)c3=O)cc2)ccn1 ?
10.9 µM

Quick one: IC50 of CCNC(=O)c1cc(Oc2ccc(NC(=O)c3cc4cccnc4n(-c4ccc(F)cc4)c3=O)cc2)ccn1 ?
1.13 µM

Quick one: IC50 of CCCNC(=O)c1cc(Oc2ccc(NC(=O)c3cc4cccnc4n(-c4ccccc4)c3=O)cc2)ccn1 ?
1.51 µM

Quick one: IC50 of CCNC(=O)c1cc(Oc2ccc(NC(=O)c3cc4cccnc4n(-c4ccc(OC)cc4)c3=O)cc2)ccn1 ?
7.21 µM

Where do the numbers come from? From ChEMBL document CHEMBL4184123.
